Biological target: human Cathepsin L (hCatL) (Homo sapiens, UniProt P07711)
Sequence (P07711 114-333): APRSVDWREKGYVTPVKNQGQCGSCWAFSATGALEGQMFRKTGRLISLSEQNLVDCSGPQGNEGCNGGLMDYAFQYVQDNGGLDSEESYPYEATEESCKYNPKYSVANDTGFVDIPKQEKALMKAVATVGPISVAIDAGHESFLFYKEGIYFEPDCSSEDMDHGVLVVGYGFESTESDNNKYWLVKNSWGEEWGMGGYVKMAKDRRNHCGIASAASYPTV
Test: Cathepsin L inhibition, fluorescence-based assay (Cbz-Phe-Arg-AMC)
Assay type: biochemical
Details: Cheng-Prusoff; substrate Cbz-Phe-Arg-AMC 5 µM, KM 6.5 µM
measurement-label: Ki (nM)
Numeric answer only, unit nM assumed.

Worked examples, 2 compounds total:
INSERT INTO assay_data (compound_smiles, numeric_readout) VALUES
  ('N#C[C@H](CCc1ccccc1)NC(=O)[C@H](Cc1ccccc1)NC(=O)c1cc(F)cc(F)c1', 196),
  ('CC(C)C[C@H](NC(=O)[C@H]1O[C@@H]1C(=O)O)C(=O)NCCCCN=C(N)N', 30);

Can you look up the measured Ki of CC(C)C[C@H](NC(=O)c1cccc(F)c1)C(=O)N[C@H](C#N)CCc1ccccc1 for me?
34
